Each record here notes measured Mutant vs. 4E4.2 Parent Specific Binding Ratio.
molecular target: T1, human CGRP receptor (human CRLR / human RAMP1 heterodimer) (human, UniProt Q16602 23-461; O60894 27-148); assay: yeast-displayed Fab, FACS, detergent-solubilized lysate of human CGRP receptor-expressing cells vs blank cells
T1 construct: Full-length receptor: endogenous on SK-N-MC (HTB-10) cells in the cAMP assay; also called hCGRP receptor on SK-N-MC (HTB-10) cells; Human CGRP Receptor/AMID detergent-solubilized cell lysate
T1 sequence (Q16602 23-461 limits assumed, chain 1 of 2): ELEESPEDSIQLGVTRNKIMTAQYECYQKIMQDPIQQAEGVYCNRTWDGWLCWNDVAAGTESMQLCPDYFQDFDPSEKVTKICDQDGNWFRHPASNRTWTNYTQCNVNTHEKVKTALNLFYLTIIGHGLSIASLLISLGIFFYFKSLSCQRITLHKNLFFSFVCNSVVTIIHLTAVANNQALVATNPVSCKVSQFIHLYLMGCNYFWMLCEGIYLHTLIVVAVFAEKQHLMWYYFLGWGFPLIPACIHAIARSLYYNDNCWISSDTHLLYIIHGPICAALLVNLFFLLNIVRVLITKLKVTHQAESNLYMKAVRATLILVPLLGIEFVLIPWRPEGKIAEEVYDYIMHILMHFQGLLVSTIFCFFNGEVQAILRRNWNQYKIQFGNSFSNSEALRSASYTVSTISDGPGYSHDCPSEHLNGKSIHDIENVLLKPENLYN
T1 sequence (O60894 27-148 limits assumed, chain 2 of 2): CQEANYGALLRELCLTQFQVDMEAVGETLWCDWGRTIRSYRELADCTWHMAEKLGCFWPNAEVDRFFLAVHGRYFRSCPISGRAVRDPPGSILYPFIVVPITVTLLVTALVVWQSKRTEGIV
Numbers only here, please. The scale is fold.

{"BINDER": "anti-CGRP receptor variant 07, yeast-displayed Fab (Fab, V domains shown, also called Variant Ab ID 07) VH: QVQLVESGGGVVQPGRSLRLSCAASGFYFMTYGMHWVRQAPGKGLEWVAVISFDGSIKYSVDSVKGRFTISRDNSKNTLFLQMNSLRAEDTAVYYCARDRLNYYESSGYYHYKYYGMAVWGQGTTVTVSS VL: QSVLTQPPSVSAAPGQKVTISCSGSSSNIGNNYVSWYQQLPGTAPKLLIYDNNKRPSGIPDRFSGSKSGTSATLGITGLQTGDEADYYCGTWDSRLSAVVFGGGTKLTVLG", "UNIT DESCRIPTOR": "fold", "ENDPOINT VALUE": 1.5}

Prompt: Identify Mutant vs. 4E4.2 Parent Specific Binding Ratio associated with the binder anti-CGRP receptor variant 11, yeast-displayed Fab (Fab, V domains shown, also called Variant Ab ID 11) VH: QVQLVESGGGVVQPGRSLRLSCAASGFWFDTFGMHWVRQAPGKGLEWVAVISFAGEDTHYVDSVKGRFTISRDNSKNTLFLQMNSLRAEDTAVYYCARDRLNYYESYGYYGYHYYGMAVWGQGTTVTVSS VL: QSVLTQPPSVSAAPGQKVTISCSGSRSNIGRYSVSWYQQLPGTAPKLLIYENMFRPRGIPDRFSGSKSGTSATLGITGLQTGDEADYYCGTWDYRMQAVVFGGGTKLTVLG
Response: 1.2

Prompt: Identify Mutant vs. 4E4.2 Parent Specific Binding Ratio associated with the binder anti-CGRP receptor variant 04, yeast-displayed Fab (Fab, V domains shown, also called Variant Ab ID 04) VH: QVQLVESGGGVVQPGRSLRLSCAASGFTFSSFGMHWVRQAPGKGLEWVAVISFDGSIKYSVDSVKGRFTISRDNSKNTLFLQMNSLRAEDTAVYYCARDRLNYYRSFGYYGYHYYGMAVWGQGTTVTVSS VL: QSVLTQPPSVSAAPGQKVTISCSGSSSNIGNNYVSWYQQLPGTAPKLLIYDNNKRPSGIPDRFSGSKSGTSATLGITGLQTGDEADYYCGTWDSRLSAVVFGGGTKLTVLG
Response: 1.2
